- MEASUREMENT_TARGET: UniProt P05121
- Sequence (P05121 24-402): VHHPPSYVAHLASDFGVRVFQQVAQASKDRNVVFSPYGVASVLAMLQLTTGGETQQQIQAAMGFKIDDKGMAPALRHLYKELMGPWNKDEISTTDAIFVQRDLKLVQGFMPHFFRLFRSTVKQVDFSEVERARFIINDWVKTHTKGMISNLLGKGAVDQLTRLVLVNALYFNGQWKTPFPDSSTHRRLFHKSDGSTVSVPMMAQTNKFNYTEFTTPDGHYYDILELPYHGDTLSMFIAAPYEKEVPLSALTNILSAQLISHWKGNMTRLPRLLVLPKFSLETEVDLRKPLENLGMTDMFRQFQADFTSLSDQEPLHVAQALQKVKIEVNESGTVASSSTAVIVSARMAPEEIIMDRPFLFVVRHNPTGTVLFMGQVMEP
- ASSAY_DETAILS: PAI chromogenic substrate assay (first S2251 assay, tPA/plasminogen system)
- Format: biochemical
- CONDITION_INFO: Concentration 25 μm
Measured Inhibition of PAI-1 in the first S2251 chromogenic substrate assay, listed per entry.
Please respond with the number in % and leave the unit unwritten.

Known results for molecules:
{"columns": ["SMILES_REPR", "RESULT_NUMBER"],
 "data": [
  ["COc1ccc(/C=c2\\[nH]c(=O)/c(=C/c3ccc(F)cc3F)[nH]c2=O)cc1", 14],
  ["CC(=O)Nc1ccccc1/C=c1\\[nH]c(=O)/c(=C/c2ccccc2)[nH]c1=O", 1],
  ["COc1ccc(/C=c2\\[nH]c(=O)/c(=C/c3ccc(OC)c(OC)c3)[nH]c2=O)cc1", 3],
  ["COC(=O)c1cccc(/C=c2\\[nH]c(=O)/c(=C/c3ccccc3)[nH]c2=O)c1", 13]
]}

Prompt line: Using known records, supply Inhibition of PAI-1 in the first S2251 chromogenic substrate assay for CC(=O)NCc1ccc(/C=c2\[nH]c(=O)/c(=C/c3ccccc3)[nH]c2=O)cc1
Response line: 1

Prompt line: Given COc1ccc(/C=c2\[nH]c(=O)/c(=C/c3ccc(CNC(=O)OC(C)(C)C)cc3)[nH]c2=O)cc1 , respond with its Inhibition of PAI-1 in the first S2251 chromogenic substrate assay.
Response line: 15

Prompt line: Please report the measured Inhibition of PAI-1 in the first S2251 chromogenic substrate assay for COc1ccc(/C=c2\[nH]c(=O)/c(=C/c3ccccc3[N+](=O)[O-])[nH]c2=O)cc1
Response line: 45

Prompt line: Give me measured Inhibition of PAI-1 in the first S2251 chromogenic substrate assay, please, for this molecule: CC(=O)Nc1ccc(/C=c2\[nH]c(=O)/c(=C/c3ccc(CNC(=O)OC(C)(C)C)cc3)[nH]c2=O)cc1
Response line: 67

Prompt line: Tell me measured Inhibition of PAI-1 in the first S2251 chromogenic substrate assay for CC(=O)Nc1ccc(/C=c2\[nH]c(=O)/c(=C/c3ccccc3Br)[nH]c2=O)cc1 please.
Response line: 27

Prompt line: Given COc1ccc(/C=c2\[nH]c(=O)/c(=C/c3ccccc3)[nH]c2=O)cc1 , respond with its Inhibition of PAI-1 in the first S2251 chromogenic substrate assay.
Response line: 53

Prompt line: Please give measured Inhibition of PAI-1 in the first S2251 chromogenic substrate assay of the following entry: CC(=O)Nc1ccc(/C=c2\[nH]c(=O)/c(=C/c3ccc(OC(=O)C(C)(C)C)cc3)[nH]c2=O)cc1
Response line: 1

Prompt line: For Nc1ccc(/C=c2\[nH]c(=O)/c(=C/c3ccccc3)[nH]c2=O)cc1 , write its Inhibition of PAI-1 in the first S2251 chromogenic substrate assay.
Response line: 5
